Target: Sodium-dependent dopamine transporter (Rattus norvegicus)
Sequence (P23977 whole entry): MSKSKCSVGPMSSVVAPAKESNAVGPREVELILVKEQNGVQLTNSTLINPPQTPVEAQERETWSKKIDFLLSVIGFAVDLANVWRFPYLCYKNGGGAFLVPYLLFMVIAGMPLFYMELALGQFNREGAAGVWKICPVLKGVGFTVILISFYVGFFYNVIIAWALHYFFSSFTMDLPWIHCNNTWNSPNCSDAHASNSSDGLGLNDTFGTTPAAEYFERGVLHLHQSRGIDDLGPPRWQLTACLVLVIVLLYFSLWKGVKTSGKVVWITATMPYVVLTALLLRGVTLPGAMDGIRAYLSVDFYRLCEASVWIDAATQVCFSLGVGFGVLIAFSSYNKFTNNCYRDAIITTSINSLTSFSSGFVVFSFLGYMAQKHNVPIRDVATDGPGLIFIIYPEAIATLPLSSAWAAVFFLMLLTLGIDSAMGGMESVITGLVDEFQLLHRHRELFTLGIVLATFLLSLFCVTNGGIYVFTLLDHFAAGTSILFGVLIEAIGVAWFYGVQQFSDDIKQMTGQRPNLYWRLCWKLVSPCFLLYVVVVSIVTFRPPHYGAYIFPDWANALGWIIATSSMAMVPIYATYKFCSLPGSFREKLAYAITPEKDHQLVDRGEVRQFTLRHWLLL
Experiment: Inhibition of dopamine DA reuptake
This listing pairs compounds with measured IC50.

compound | comparison-sign | IC50 (nM)
c1ccc(CCCN2CCNCC2)cc1 | > | 30000
C[C@@H]1CN(CCOC(c2ccc(F)cc2)c2ccc(F)cc2)[C@@H](C)CN1CCOC(c1ccc(F)cc1)c1ccc(F)cc1 | = | 86
c1ccc(CCCNCCCCNCCOC(c2ccccc2)c2ccccc2)cc1 | = | 35
c1ccc(CCCN2CCCCC(NCCOC(c3ccccc3)c3ccccc3)C2)cc1 (centres undefined) | = | 57
